- study.system: human neutrophil elastase (HNE) (Homo sapiens, UniProt P08246 30-267)
- Sequence (P08246 30-267): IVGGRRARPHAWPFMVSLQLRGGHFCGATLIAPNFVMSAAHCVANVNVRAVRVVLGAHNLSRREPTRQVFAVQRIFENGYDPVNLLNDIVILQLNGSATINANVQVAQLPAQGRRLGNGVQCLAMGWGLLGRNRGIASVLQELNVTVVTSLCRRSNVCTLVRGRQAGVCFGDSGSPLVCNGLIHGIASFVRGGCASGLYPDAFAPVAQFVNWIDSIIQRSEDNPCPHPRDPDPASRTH
- method.notes: enzyme inhibition; elastin-Congo red, 100 nM HNE; E6/E12 values swapped in a second sentence; ELISA: PBS pH 7.4, 5 mM MgCl2, 10 mM KCl, 0.01% Tween 20, 20 min (temperature not stated); inhibition: 50 mM Tris pH 7.5, 150 mM NaCl, 10 mM KCl, 5 mM MgCl2, 0.02% Tween 20, 37 C
- reported.conditions: protein: commercial; label: biotin (ELISA); predicted: 1 G4, 3 hairpin loops (not tested)

# binder, IC50
rows = [
    ("aptamer E6 (ssDNA) DNA: CATGCTTCCCCAGGGAGATGAGGACGGGCGTGGGGATGGGTATGGTGCAACTCCCGAGGAACATGCGTCGCAAAC", "173 nM"),
]
